# Tested on: Rhizoctonia solani (Rs)
# ASSAY NAME: In vitro pathogen growth inhibition assay, Rs (mycelial plugs)
# Assay type: cell-based
# CONDITION LABEL: Rhizoctonia solani, 48 h, ≥90% growth inhibition; mycelial plugs; 48 hours; vs 2% DMSO control; read-out: Compound Concentration (ppm) sufficient for ≥90% inhibition of Rs
For each record, write down the corresponding IC90.
Numbers only, in µg/mL.

Recorded IC90, per entry:
Cc1c(-n2cccn2)sc2c1c(=O)n(C(C)(C)C(=O)NC(C)C)c(=O)n2C[C@H](OCCC#N)c1cc(F)ccc1O 2
COc1ccc(F)cc1[C@H](Cn1c(=O)n([C@@H](C)C(=O)N(C)C(C)C)c(=O)c2c(C)c(-n3nccn3)sc21)OCCC#N 2
COc1ccc(F)cc1[C@H](Cn1c(=O)n(C(C)(C)C(=O)NC2CCC2)c(=O)c2c(C)c(-n3cccn3)sc21)OCCC#N 0.08

Please look at the following compound next.
Sample `COc1ccc(F)cc1[C@@H](O)Cn1c(=O)n([C@@H](C)C(=O)N(C)C(C)C)c(=O)c2c(C)c(-n3nccn3)sc21` ; IC90 observed: 0.08

###

# System: Fusarium virguliforme (Fv)
# ASSAY NAME: In vitro pathogen growth inhibition assay, Fv
# Format: cell-based
# CONDITION LABEL: concentration sufficient to ≥90% inhibition of growth, 48 hours vs 2% DMSO control, read-out: Compound Concentration (ppm) for ≥90% inhibition, Fv
ENDPOINT NAME: IC90

Recorded IC90, per entry:
COc1ccc(F)cc1[C@@H](Cn1c(=O)n(C(C)(C)C(=O)NC(C)C)c(=O)c2c(C)c(-n3nccn3)sc21)OC(C)=O ≥ 10 µg/mL
COc1ccc(F)cc1[C@@H](O)Cn1c(=O)n(C(C)(C)C(N)=O)c(=O)c2c(C)c(-n3nccn3)sc21 50 µg/mL
COCCO[C@@H](Cn1c(=O)n([C@@H](C)C(=O)NC(C)C)c(=O)c2c(C)c(-n3cccn3)sc21)c1cc(F)ccc1OC > 50 µg/mL

// each listed compound needs a value for IC90
1. COc1ccc(F)cc1[C@H](Cn1c(=O)n([C@@H](C)C(N)=O)c(=O)c2c(C)c(-n3nccn3)sc21)OCC(C)(C)C#N
2. COc1ccc(F)cc1[C@@H](CCCC#N)Cn1c(=O)n(C(C)(C)C(=O)NC(C)C)c(=O)c2c(C)c(-n3ccnn3)sc21
3. COc1ccc(F)cc1[C@H](Cn1c(=O)n(C(C)(C)C(=O)NC(C)C)c(=O)c2c(C)c(-n3cncn3)sc21)OCCC#N
4. CCOC(=O)c1sc2c(c1C)c(=O)n([C@H](C)C(N)=O)c(=O)n2C[C@H](OCCC#N)c1cc(F)ccc1OC
5. CCOC(=O)c1sc2c(c1C)c(=O)n(C(C)(C)C(N)=O)c(=O)n2C[C@H](OC1CCOCC1)c1ccccc1OC
6. CC(=O)Oc1ccc(F)cc1[C@@H](Cn1c(=O)n(C(C)(C)C(=O)NC(C)C)c(=O)c2c(C)c(-n3nccn3)sc21)OCCC#N
7. Cc1c(-n2cccn2)sc2c1c(=O)n(C(C)(C)C(=O)NC(C)C)c(=O)n2CCc1cc(F)ccc1OCCO

Ans:
["50 µg/mL", "> 50 µg/mL", "≥ 10 µg/mL", "> 50 µg/mL", "10 µg/mL", "> 50 µg/mL", "10 µg/mL"]
